A collection of binders and their measured binding relative to wild-type Fc
- STUDY SYSTEM: T1, CD16A F158 (UniProt P08637 17-208, limits assumed)
- T1 construct: Only the name and allotype are printed; also called FcγRIIIA
- T1 sequence (P08637 17-208 limits assumed): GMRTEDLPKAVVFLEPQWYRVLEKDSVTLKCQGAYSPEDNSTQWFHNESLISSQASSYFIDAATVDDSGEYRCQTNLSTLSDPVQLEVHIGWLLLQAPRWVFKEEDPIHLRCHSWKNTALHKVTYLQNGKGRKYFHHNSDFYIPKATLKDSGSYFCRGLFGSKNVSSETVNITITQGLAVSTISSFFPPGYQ
- PROTOCOL: assay not named in Table 4

- BINDER: "Fc variant F243L D270E K392T P396L (other, UniProt P01857-1 104-330, looked up, domain: Fc) DKTHTCPPCPAPELLGGPSVFLLPPKPKDTLMISRTPEVTCVVVDVSHEEPEVKFNWYVDGVEVHNAKTKPREEQYNSTYRVVSVLTVLHQDWLNGKEYKCKVSNKALPAPIEKTISKAKGQPREPQVYTLPPSRDELTKNQVSLTCLVKGFYPSDIAVEWESNGQPENNYTTTPLVLDSDGSFFLYSKLTVDKSRWQQGNVFSCSVMHEALHNHYTQKSLSLSPGK"
  binding relative to wild-type Fc: 2.44
- BINDER: "Fc variant F243L R255L D270E P396L (other, UniProt P01857-1 104-330, looked up, domain: Fc) DKTHTCPPCPAPELLGGPSVFLLPPKPKDTLMISLTPEVTCVVVDVSHEEPEVKFNWYVDGVEVHNAKTKPREEQYNSTYRVVSVLTVLHQDWLNGKEYKCKVSNKALPAPIEKTISKAKGQPREPQVYTLPPSRDELTKNQVSLTCLVKGFYPSDIAVEWESNGQPENNYKTTPLVLDSDGSFFLYSKLTVDKSRWQQGNVFSCSVMHEALHNHYTQKSLSLSPGK"
  binding relative to wild-type Fc: 1.64
